Cytochrome P450 3A4 (Homo sapiens, UniProt P08684): recorded IC50 for assorted molecules
Sequence (P08684 whole entry): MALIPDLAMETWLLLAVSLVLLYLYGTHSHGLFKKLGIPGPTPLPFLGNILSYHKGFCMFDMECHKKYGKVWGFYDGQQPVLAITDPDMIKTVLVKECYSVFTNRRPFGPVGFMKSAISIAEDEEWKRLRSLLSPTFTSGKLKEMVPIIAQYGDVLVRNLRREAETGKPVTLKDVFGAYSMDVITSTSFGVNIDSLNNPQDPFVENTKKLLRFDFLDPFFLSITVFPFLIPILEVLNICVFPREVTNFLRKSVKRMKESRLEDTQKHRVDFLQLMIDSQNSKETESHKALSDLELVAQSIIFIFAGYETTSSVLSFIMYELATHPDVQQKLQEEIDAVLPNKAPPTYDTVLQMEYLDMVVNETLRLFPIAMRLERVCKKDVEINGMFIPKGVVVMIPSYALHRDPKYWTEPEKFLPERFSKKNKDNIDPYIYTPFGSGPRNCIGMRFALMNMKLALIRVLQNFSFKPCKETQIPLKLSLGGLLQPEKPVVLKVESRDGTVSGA

Field: example entries. Status: answers known.
Noted for `Nc1cc(CN2CCC(C(=O)N3CCC(n4c(=O)n(-c5cnccn5)c5cc(F)ccc54)CC3)CC2)ccn1` : its IC50 reads > 30 µM

Noted for `Nc1cc(CN2CCC(C(=O)N3CCC(n4c(=O)n(CCN5CCOCC5)c5ccccc54)CC3)CC2)ccn1` : its IC50 reads 30 µM

Noted for `Nc1cc(CN2CCC(C(=O)N3CCC(n4c(=O)n(CCCC(F)(F)F)c5ccccc54)CC3)CC2)ccn1` : its IC50 reads > 30 µM

Noted for `Nc1cc(CN2CCC(C(=O)N3CCC(n4c(=O)n(-c5ncccn5)c5cc(F)ccc54)CC3)CC2)ccn1` : its IC50 reads > 30 µM

Further cases:
Noted for `COCCn1c(=O)n(C2CCN(C(=O)C3CCN(Cc4ccnc(N)c4)CC3)CC2)c2ccccc21` : its IC50 reads > 30 µM

* * *

Give log10 of AUC for every item shown.
protocolText: AUC in Sprague-Dawley rat at 10 mg/kg, po
Assay type: ADME, organism-based
Set-up: dose 10 mg/kg, route oral
conditionNotes: plasma
Units before log transform: µM·h; reported quantity: AUC; transform: log10.

Field: example entries. Status: answers known.
Noted for `Nc1cc(CN2CCC(C(=O)N3CCC(n4c(=O)n(-c5ccccn5)c5cc(F)ccc54)CC3)CC2)ccn1` : its log10 of AUC reads 1.04

Noted for `Nc1cc(CN2CCC(C(=O)N3CCC(n4c(=O)n(CCCC(F)(F)F)c5cc(F)ccc54)CC3)CC2)ccn1` : its log10 of AUC reads 0.61

Noted for `Nc1cc(CN2CCC(C(=O)N3CCC(n4c(=O)n(-c5cc(F)cc(F)c5)c5cc(F)ccc54)CC3)CC2)ccn1` : its log10 of AUC reads 1.11

Noted for `Nc1cc(CN2CCC(C(=O)N3CCC(n4c(=O)n(-c5ccc(F)c(F)c5)c5cc(F)ccc54)CC3)CC2)ccn1` : its log10 of AUC reads 0.71

List the reported log10 of AUC of each compound below.
1. COCCn1c(=O)n(C2CCN(C(=O)C3CCN(Cc4ccnc(N)c4)CC3)CC2)c2ccccc21
2. Nc1cc(CN2CCC(C(=O)N3CCC(n4c(=O)n(C5CCCC5)c5cc(F)ccc54)CC3)CC2)ccn1
3. Nc1cc(CN2CCC(C(=O)N3CCC(n4c(=O)n(CC(F)(F)F)c5cc(F)ccc54)CC3)CC2)ccn1
4. Nc1cc(CN2CCC(C(=O)N3CCC(n4c(=O)n(-c5cnccn5)c5cc(F)ccc54)CC3)CC2)ccn1
5. Nc1cc(CN2CCC(C(=O)N3CCC(n4c(=O)n(CC5CC5)c5cc(F)ccc54)CC3)CC2)ccn1

1. -1.00
2. 0.26
3. 0.08
4. 0.57
5. 0.54

* * *

protocolText: Plasma concentration in Sprague-Dawley rat at 10 mg/kg, po after 6 hrs
Assay type: ADME, organism-based
Design: dose 10 mg/kg, route oral
Give concentration at 6 h for every item shown.
Numbers only, in nM.

Field: example entries. Status: answers known.
Noted for `Nc1cc(CN2CCC(C(=O)N3CCC(n4c(=O)n(CC(F)(F)F)c5cc(F)ccc54)CC3)CC2)ccn1` : its concentration at 6 h reads 130

Noted for `Nc1cc(CN2CCC(C(=O)N3CCC(n4c(=O)n(CCCC(F)(F)F)c5cc(F)ccc54)CC3)CC2)ccn1` : its concentration at 6 h reads 510

Noted for `Nc1cc(CN2CCC(C(=O)N3CCC(n4c(=O)n(-c5cnccn5)c5cc(F)ccc54)CC3)CC2)ccn1` : its concentration at 6 h reads 500

Further cases:
Noted for `Nc1cc(CN2CCC(C(=O)N3CCC(n4c(=O)n(-c5ccccn5)c5cc(F)ccc54)CC3)CC2)ccn1` : its concentration at 6 h reads 1200

* * *

testTarget: UniProt Q9JI35
Sequence (Q9JI35 whole entry): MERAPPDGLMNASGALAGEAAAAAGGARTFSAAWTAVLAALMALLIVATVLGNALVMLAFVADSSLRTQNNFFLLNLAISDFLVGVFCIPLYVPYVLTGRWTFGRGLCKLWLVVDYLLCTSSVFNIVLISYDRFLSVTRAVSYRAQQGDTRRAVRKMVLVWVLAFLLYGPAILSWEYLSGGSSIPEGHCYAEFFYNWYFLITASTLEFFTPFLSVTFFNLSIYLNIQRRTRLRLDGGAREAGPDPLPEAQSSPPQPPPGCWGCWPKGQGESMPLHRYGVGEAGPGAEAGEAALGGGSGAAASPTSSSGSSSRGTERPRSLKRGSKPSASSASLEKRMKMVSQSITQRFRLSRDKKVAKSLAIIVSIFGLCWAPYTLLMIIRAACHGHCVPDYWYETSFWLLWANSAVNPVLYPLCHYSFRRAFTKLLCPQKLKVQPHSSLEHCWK
readoutName: Ki (nM)
Numbers only, in nM.

Noted for `Nc1cc(CN2CCC(C(=O)N3CCC(n4c(=O)n(Cc5ccccc5)c5cc(F)ccc54)CC3)CC2)ccn1` : its Ki reads 6

Noted for `Nc1cc(CN2CCC(C(=O)N3CCC(n4c(=O)n(Cc5ccc(Cl)cc5)c5ccccc54)CC3)CC2)ccn1` : its Ki reads 12

Now look at this entry.
Noted for `Nc1cc(CN2CCC(C(=O)N3CCC(n4c(=O)n(-c5cnccn5)c5cc(F)ccc54)CC3)CC2)ccn1` : its Ki reads 0.5

* * *

Give concentration at 6 h for every item shown.
protocolText: Plasma concentration in Sprague-Dawley rat at 10 mg/kg, po after 6 hrs
Type: ADME, organism-based
Set-up: dose 10 mg/kg, route oral
One number for each entry, in nM.

Field: example entries. Status: answers known.
Noted for `Nc1cc(CN2CCC(C(=O)N3CCC(n4c(=O)n(-c5cc(F)cc(F)c5)c5cc(F)ccc54)CC3)CC2)ccn1` : its concentration at 6 h reads 1850

Noted for `Nc1cc(CN2CCC(C(=O)N3CCC(n4c(=O)n(CC5CC5)c5cc(F)ccc54)CC3)CC2)ccn1` : its concentration at 6 h reads 260

Noted for `Nc1cc(CN2CCC(C(=O)N3CCC(n4c(=O)n(C5CCCC5)c5cc(F)ccc54)CC3)CC2)ccn1` : its concentration at 6 h reads 200

Now look at this entry.
Noted for `Nc1cc(CN2CCC(C(=O)N3CCC(n4c(=O)n(-c5ccc(F)c(F)c5)c5cc(F)ccc54)CC3)CC2)ccn1` : its concentration at 6 h reads 680
